Values compiled from patent US5411977A.

tested on: IL-lb-induced proteoglycan breakdown in bovine nasal cartilage; experiment: in vitro cytokine-induced cartilage degradation assay (Bovine Nasal Septum Cartilage Degradation Assay); format: cell-based; details: Bos taurus; IL-lb (500 ng/ml), 40 hours, 37° C.
Class (required): determined from IC50; valid ranges are lower segment: < 10 µM; middle segment: ≥ 10 µM and < 20 µM; upper segment: ≥ 20 µM

Known results for compounds:
INSERT INTO measurements (structure_smiles_string, tested_on, classification) VALUES
  ('O=c1cc(-c2ccccc2C(F)(F)F)sn1-c1ccccc1', 'IL-lb-induced proteoglycan breakdown in bovine nasal cartilage', 'lower segment'),
  ('O=c1c(-c2ccccc2)c(-c2ccccc2)sn1-c1ccccc1', 'IL-lb-induced proteoglycan breakdown in bovine nasal cartilage', 'upper segment'),
  ('O=c1cc(-c2ccccc2)sn1-c1cccc(C(F)(F)F)c1', 'IL-lb-induced proteoglycan breakdown in bovine nasal cartilage', 'lower segment'),
  ('Cc1ccc(-n2sc(-c3ccccc3)cc2=O)cc1', 'IL-lb-induced proteoglycan breakdown in bovine nasal cartilage', 'middle segment'),
  ('O=c1cc(-c2cccc(C(F)(F)F)c2)sn1-c1ccccc1', 'IL-lb-induced proteoglycan breakdown in bovine nasal cartilage', 'middle segment');

Lab note: sort `O=c1cc(-c2cccc(Cl)c2)sn1-c1ccccc1` into the matching IC50 band.
middle segment

Which class is correct for the following compound? `O=c1cc(-c2ccccc2)sn1-c1ccc([N+](=O)[O-])cc1`
upper segment

// bin(item) where item = `O=c1cc(-c2ccccc2Cl)sn1-c1ccccc1`
middle segment

Class for `O=c1cc(-c2ccc(Cl)cc2)sn1-c1ccccc1` ?
middle segment
